tested on: ATP; test: switch fluorescence ratio, 500 uM ATP over buffer (Cy3 cluster intensity, sum of 5 cycles each) (fold (ratio)); higher = stronger signal-on switching upon ATP binding; sequences stand for … in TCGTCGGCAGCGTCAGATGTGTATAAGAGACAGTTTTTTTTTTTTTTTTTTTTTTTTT…TC; settings: aptamer strand: ATP DNA aptamer (quencher-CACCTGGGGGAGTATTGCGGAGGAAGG + anchor), 100 nM annealed; ATP concentration: 500 uM;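 also: ATP exposure 15 min at 22 °C before imaging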
experimental.readout: switch fluorescence ratio

sequence.data: TTTCATGGCG
value.measured: 0.979

sequence.data: CTGATATTTG
value.measured: 0.998

sequence.data: CTAAGGGAAG
value.measured: 0.978

sequence.data: TTTGGGTGTT
value.measured: 1.02

sequence.data: CGTTATTTAT
value.measured: 0.999

sequence.data: AAGTTCATGG
value.measured: 0.973

sequence.data: AGCGGGTTCG
value.measured: 1

sequence.data: CCGGTGGCTG
value.measured: 1

sequence.data: TTGATAGCTT
value.measured: 0.998

sequence.data: GAACGTGGCA
value.measured: 0.996

sequence.data: AAACGTCTGA
value.measured: 0.994

sequence.data: GTTTTCGGGT
value.measured: 1.01

sequence.data: CTGGTGGGTC
value.measured: 1.01

sequence.data: TGTAGGGGAA
value.measured: 0.996

sequence.data: GGGGGTCAGT
value.measured: 0.991

---

Reported switch fluorescence ratio values for a set of sequences
system: ATP; experiment: switch fluorescence ratio, 500 uM ATP over buffer (Cy3 cluster intensity, sum of 5 cycles each) (fold (ratio)); higher = stronger signal-on switching upon ATP binding; sequences stand for … in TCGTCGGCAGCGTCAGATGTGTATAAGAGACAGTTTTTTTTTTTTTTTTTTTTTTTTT…TC; conditions: aptamer strand: ATP DNA aptamer (quencher-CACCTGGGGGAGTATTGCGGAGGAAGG + anchor), 100 nM annealed; ATP concentration: 500 uM;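 also: ATP exposure 15 min at 22 °C before imaging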

sequence.data: AAATGGGGGA
switch fluorescence ratio: 0.991
//
sequence.data: CGTGGCAGGA
switch fluorescence ratio: 1.03
//
sequence.data: GTAAATTGTG
switch fluorescence ratio: 1.01
//
sequence.data: TGGAGGGGGG
switch fluorescence ratio: 0.997
//
sequence.data: TTGTTGTGGT
switch fluorescence ratio: 0.987
//
sequence.data: TTCAACTTTT
switch fluorescence ratio: 1.01
//
sequence.data: ATGAAAGGGT
switch fluorescence ratio: 0.998
//
sequence.data: AGGCCGGGTG
switch fluorescence ratio: 1.35
//
sequence.data: GGTTCGAGAG
switch fluorescence ratio: 0.964
//
sequence.data: TTGGATGACA
switch fluorescence ratio: 1.02
//
sequence.data: TTTGTAACCT
switch fluorescence ratio: 1.74
//
sequence.data: GAGGCGGATT
switch fluorescence ratio: 1.01
//
sequence.data: AATCAGGACA
switch fluorescence ratio: 0.996
//
sequence.data: CAAGTGAGAA
switch fluorescence ratio: 1.02
//
sequence.data: TAGGGAATAG
switch fluorescence ratio: 1.14
//
sequence.data: CTTGGAAATA
switch fluorescence ratio: 1.02
//
sequence.data: GAGGGCAGGG
switch fluorescence ratio: 0.978
//
sequence.data: AGCGATTTTT
switch fluorescence ratio: 1.01
//
sequence.data: TTTAGACCAG
switch fluorescence ratio: 1.01
//
sequence.data: AGTGTACGGG
switch fluorescence ratio: 1.08
//
sequence.data: TGGGTTCGGG
switch fluorescence ratio: 0.95
//
sequence.data: ACGCCTTAGG
switch fluorescence ratio: 1.05
//
sequence.data: GGGGGATTCT
switch fluorescence ratio: 1.02
//
sequence.data: TTTTAGGGCC
switch fluorescence ratio: 0.999
//
sequence.data: CACTTTTTGG
switch fluorescence ratio: 0.999
//
sequence.data: TTTGACGGGT
switch fluorescence ratio: 1.02
//
sequence.data: AAGGCTTTTT
switch fluorescence ratio: 0.993
//
sequence.data: ATCGCTTAAT
switch fluorescence ratio: 1.03
//
sequence.data: TCGACCATCG
switch fluorescence ratio: 0.974
//
sequence.data: AAATCGTCCA
switch fluorescence ratio: 0.992
//
sequence.data: TAATTTTTT
switch fluorescence ratio: 1
//
sequence.data: TATGGGGATG
switch fluorescence ratio: 1
//
sequence.data: AGCGGGGGGT
switch fluorescence ratio: 1.03
//
sequence.data: AACGTTAAAT
switch fluorescence ratio: 1.01
//
sequence.data: ACTTAGTCCA
switch fluorescence ratio: 1.03
//
sequence.data: GGGCGATGTT
switch fluorescence ratio: 0.984
//
sequence.data: TTTTTGGAGC
switch fluorescence ratio: 1.01
//
sequence.data: CCAGTTTCTG
switch fluorescence ratio: 1.02
//
sequence.data: TCATAATTGG
switch fluorescence ratio: 1
//
sequence.data: GGATTAGGTA
switch fluorescence ratio: 1
//
sequence.data: GCTGGGCGAT
switch fluorescence ratio: 0.961
//
sequence.data: GGGGGGTGCT
switch fluorescence ratio: 1.02
//
sequence.data: CGCCAGCAGC
switch fluorescence ratio: 1.6
//
sequence.data: GCGCGTATAT
switch fluorescence ratio: 1.07
//
sequence.data: TGAAGGATTT
switch fluorescence ratio: 1.01
//
sequence.data: TGCATTAATT
switch fluorescence ratio: 0.992
//
sequence.data: GCAAGTTGGT
switch fluorescence ratio: 1
//
sequence.data: AGATTTATCG
switch fluorescence ratio: 0.978
//
sequence.data: CTGTATGGTA
switch fluorescence ratio: 1.04
//
sequence.data: TTTTTTATTT
switch fluorescence ratio: 0.996
//
sequence.data: GGAGTTAAGC
switch fluorescence ratio: 1.03
//
sequence.data: ATTAAATTGT
switch fluorescence ratio: 0.992
//
sequence.data: ATTGTTATTA
switch fluorescence ratio: 1.03
//
sequence.data: TGGAATATGG
switch fluorescence ratio: 1.04
//
sequence.data: TCGATTTGGC
switch fluorescence ratio: 1
//
sequence.data: CGAGTGGGGA
switch fluorescence ratio: 1.04
//
sequence.data: TATATTTGTC
switch fluorescence ratio: 1.04
//
sequence.data: TAGAAAGGGT
switch fluorescence ratio: 1.01
//
sequence.data: GGGTAGAGGT
switch fluorescence ratio: 1
//
sequence.data: GTTATATTGT
switch fluorescence ratio: 0.994
//
sequence.data: GATGTCACGA
switch fluorescence ratio: 1.03
//
sequence.data: TTATTAAGCT
switch fluorescence ratio: 1.01
//
sequence.data: GATACATTGC
switch fluorescence ratio: 1.07
//
sequence.data: CTGGATTTCA
switch fluorescence ratio: 0.99
//
sequence.data: ATCGTTATTA
switch fluorescence ratio: 1.02
//
sequence.data: AGTTACGGAC
switch fluorescence ratio: 1.36
//
sequence.data: ACTTTGGTGC
switch fluorescence ratio: 1.03
//
sequence.data: TATTTCTTT
switch fluorescence ratio: 0.99
//
sequence.data: AGTGCGTTTA
switch fluorescence ratio: 1
//
sequence.data: TGGTTGTAAG
switch fluorescence ratio: 1.03
//
sequence.data: TACTCTTTTC
switch fluorescence ratio: 1.02
//
sequence.data: TGTCGGGATT
switch fluorescence ratio: 1.03
//
sequence.data: ATGACGAAAA
switch fluorescence ratio: 1.04
//
sequence.data: AGCCCGTTTG
switch fluorescence ratio: 0.964
//
sequence.data: CGAGCTCTCG
switch fluorescence ratio: 1
//
sequence.data: GAAAGGGTTT
switch fluorescence ratio: 1.01
//
sequence.data: GATGAAGAAA
switch fluorescence ratio: 1.03

Recorded values, source the supplement of paper PMC10126150.
